B1: HDV Ribozyme (parent)
chain: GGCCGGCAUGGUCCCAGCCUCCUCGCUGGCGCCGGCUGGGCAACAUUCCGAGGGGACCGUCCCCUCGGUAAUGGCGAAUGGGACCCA

variants of: B1; test: self-cleavage, relative activity (ratio to wild type); higher = more cleavage; co-transcriptional
Would you mind telling me the reported self-cleavage of each entry?
Give bare numbers.

Answered cases to consult:
Query: Given the variant G29U G81A , what is its reported self-cleavage?
Result: 0.12

Query: What about this variant? G28U C36A
Result: 0.0898

Query: Then G31A A43G ?
Result: 0.0386

Query: Follow-up entry: C24G U37A
Result: 0.0674

Query: Entry to check: U12G U79C
Result: 0.243

Provide self-cleavage values for the following items, in order.
1. A16G G35C
2. C4U U23A
3. G34A G68A
4. C49A G73C
5. G29A G68U
6. A8G G80U

Result:
1. 0.138
2. 0.727
3. 0.144
4. 0.293
5. 0.0841
6. 0.173

Your task in this section: give self-cleavage for each listed record.
1. C61G G73C
2. U9A G68C
3. G50U A56U
4. A8U G35A
5. G40C C48A
6. C30U U65G
7. G76U U79C

Result:
0.264
1.16
1.06
0.426
0.424
0.506
0.782

Value source: the RNAGym collection of RNA variant scans (doi:10.7554/elife.80360)
